- target_or_system: Human plasma kallikrein (Homo sapiens (Human), UniProt P03952)
- Sequence (P03952 391-638): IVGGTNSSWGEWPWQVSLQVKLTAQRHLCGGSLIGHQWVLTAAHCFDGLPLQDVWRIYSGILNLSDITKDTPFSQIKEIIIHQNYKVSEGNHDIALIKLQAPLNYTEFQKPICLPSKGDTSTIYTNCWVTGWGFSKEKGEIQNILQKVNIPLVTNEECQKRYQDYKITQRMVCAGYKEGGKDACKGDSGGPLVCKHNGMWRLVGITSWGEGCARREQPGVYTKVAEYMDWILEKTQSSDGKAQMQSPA
- Sequence (P03952 20-390 partner): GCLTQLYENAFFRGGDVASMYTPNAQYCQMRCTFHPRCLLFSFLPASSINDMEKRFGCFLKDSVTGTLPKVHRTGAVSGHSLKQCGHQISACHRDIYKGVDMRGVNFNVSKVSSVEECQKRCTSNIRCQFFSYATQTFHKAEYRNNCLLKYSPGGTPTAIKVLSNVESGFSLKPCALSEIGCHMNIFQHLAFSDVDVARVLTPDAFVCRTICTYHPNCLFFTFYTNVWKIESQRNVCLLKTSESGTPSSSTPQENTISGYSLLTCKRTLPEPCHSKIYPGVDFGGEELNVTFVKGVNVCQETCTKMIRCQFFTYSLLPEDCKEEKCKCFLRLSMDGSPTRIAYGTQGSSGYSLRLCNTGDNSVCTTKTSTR
- procedure_details: Determination of the IC50 for plasma kallikrein (fluorogenic substrate H-DPro-Phe-Arg-AFC)
- test_context: class symbols A-D, read-out: IC50 (human PKal)
# Lookup of reported IC50 keyed by entry

compound | val
COCc1nn(Cc2ccc3c(c2)CN(C)CC3)cc1C(=O)NCc1c(-n2ccc(C#N)n2)ccc(OC)c1F | < 0.01 µM
COCc1nn(Cc2nc3c(s2)CN(C)CC3)cc1C(=O)NCc1c(-n2cc(C)nn2)ccc(OC)c1F | 0.1 to 1 µM
COCc1nn(Cc2ccc3c(c2)C2CCCN2CC3)cc1C(=O)NCc1c(-n2cc(C)nn2)ccc(OC)c1F (stereo not drawn) | < 0.01 µM

Entry COc1ccc(-n2cc(C)nn2)c(CNC(=O)c2cn(Cc3cc4n(n3)CCN(C)C4)nc2C(F)F)c1F ; IC50 = < 0.01 µM

Entry COc1ccc(-n2cc(C)nn2)c(CNC(=O)c2cn(Cc3ccc4c(c3)CN(C)CC4)nn2)c1F ; IC50 = < 0.01 µM

Entry COCc1nn(Cc2cnc3c(c2)CN(C(C)C)CC3)cc1C(=O)NCc1c(-n2cc(C)nn2)ccc(OC)c1F ; IC50 = 0.01 to 0.03 µM

Entry COCc1nn(Cc2ccc3c(c2)CNCC3(C)C)cc1C(=O)NCc1c(-n2cc(C)nn2)ccc(OC)c1F ; IC50 = 0.01 to 0.03 µM

Entry COc1ccc(-n2cc(C)nn2)c(CNC(=O)c2cn(Cc3cn4c(n3)CN(C)CC4)nc2C(F)(F)F)c1F ; IC50 = 0.03 to 0.1 µM

Entry COCc1nn(Cc2ccc3c(c2)CN(C)CC3(C)C)cc1C(=O)NCc1c(-n2cc(C)nn2)ccc(OC)c1F ; IC50 = 0.01 to 0.03 µM

Entry COCc1nn(Cc2ccc3c(c2)CN(C2CC2)CC3)cc1C(=O)NCc1c(-n2cc(C)nn2)ccc(OC)c1F ; IC50 = < 0.01 µM

Entry COCc1nn(Cc2ccc3ncccc3c2)cc1C(=O)NCc1c(-n2cnnn2)ccc(OC)c1F [RC3, reference compound] ; IC50 = < 0.01 µM
